readout.kind: melting point

{"structure.smiles.string": "CC1(C)C=Cc2cc(C(=O)NCCCCc3ccccc3)ccc2O1", "result": "65 to 70 °C"}

input: Fill in: melting point of CN(C)C(=S)Oc1ccc(C(=O)c2cccc(C#N)c2)cc1 is ___
output: 160 °C

input: What melting point value was documented for this compound, CNC(=O)Cc1nn(-c2ccccc2)c(=O)c2c1c1c(Br)cccc1n2C ?
output: 267 to 268 °C

###

Reported melting point by item:

Worked examples follow.
{"molecule": "Nc1ccc(N2CCc3ccncc3C2)cc1", "melting point": "> 220 °C"}
{"molecule": "O=C(Nc1cccc(-c2cc(-c3c(Cl)cccc3Cl)no2)c1)C(Cl)Cl", "melting point": "167 °C"}
{"molecule": "CCCCc1nc2ccc(C(C)O)cc2c(=O)n1Cc1ccc(-c2ccccc2-c2nnn[nH]2)cc1 (centres undefined)", "melting point": "146 to 147 °C"}
{"molecule": "COc1cc(/C=C/C(=O)CC(=O)c2ccc(I)cc2)ccc1O", "melting point": "139 to 141 °C"}
{"molecule": "O=C(O)c1sc(-c2ccc(Cl)cc2)nc1C(F)(F)F", "melting point": "235 to 250 °C"}
{"molecule": "COc1cccc2c1CC(N=[N+]=[N-])C(O)C2 (centres undefined)", "melting point": "83 to 84 °C"}
{"molecule": "CC(=O)Nc1cc(Cl)c([N+](=O)[O-])cc1CCOC(C)=O", "melting point": "153 °C"}
{"molecule": "COc1cc2c(Nc3ccc(Sc4nccn4C)c(Cl)c3)c(C#N)cnc2cc1-c1csc(CN2CCOCC2)c1", "melting point": "238 to 240 °C"}
{"molecule": "COc1ccc(Oc2ccc(C(=O)N(C(C)C)C3CCCCC3)cc2)cc1", "melting point": "81.7 °C"}
{"molecule": "COc1cc2c3c(nc4ccc(Cl)cc4c3c1)-c1ccccc1N2", "melting point": "205 to 207 °C"}

input: Please give the measured melting point for this molecule: COc1cc(CCl)c(CCl)cc1OCc1ccccc1
output: 114 to 116 °C

input: Quick one: melting point for O=CC(=Cc1ccccc1)C(C=O)=Cc1ccccc1 ?
output: 109 to 110 °C

input: Fill in: melting point of CC(=O)OCc1ccc2oc(=O)c(C(=O)Oc3cc([N+](=O)[O-])ccc3[N+](=O)[O-])cc2c1 is ___
output: 162 to 164 °C

input: Could you tell me which melting point is on file for NC(=O)c1sc2nc(N3CCC(NCC(O)c4ccc5ncccc5c4)CC3)cc(C(F)(F)F)c2c1N (centres undefined) ?
output: 217 to 219 °C

Hello, the source for this data is a melting point compilation (Tetko et al.; mined from patent text by program, amines drawn as free bases though some values may be those of a salt), in case you need it.
